Biological target: human GABAA α1β3γ2 receptor (Homo sapiens (Human), UniProt P14867+P18507)
Assay: Radioligand binding assay, competition for [3H]Flumazenil, γ2-containing GABAA subtypes
Settings: Ki α1β3γ2 (nM)/Ki α2β2γ1 (nM)
ENDPOINT NAME: γ2/γ1 Selectivity Ratio
Please give only the number in your answer, with no unit.

Fill in reported γ2/γ1 Selectivity Ratio for this entry: Cc1nnc2n1-c1sc3c(c1C(c1c(F)cccc1F)=NC2)C[C@@H](C(F)F)C3
88.4

Input Fc1cccc(Cl)c1C1=NCc2nnc(C3CC3)n2-c2sc3c(c21)C[C@@H](C(F)F)C3 , output reported γ2/γ1 Selectivity Ratio.
97.7

Name the recorded γ2/γ1 Selectivity Ratio of the item Cc1ncc2n1-c1ccc(Cl)cc1C(c1ccccc1F)=NC2 [Midazolam, reference compound] in your answer.
0.0068

Kindly indicate its recorded γ2/γ1 Selectivity Ratio. Item: Cc1nc2n(n1)-c1sc3c(c1C(c1c(F)cccc1F)=N[C@H]2C)C[C@@H](C(F)F)C3
191.1

Give me measured γ2/γ1 Selectivity Ratio, please, for this compound: Cc1nnc2n1-c1sc3c(c1C(c1c(F)cccc1F)=NC2)C[C@@H](C)C3
36.2

Others:
Identify measured γ2/γ1 Selectivity Ratio associated with Fc1cccc(F)c1C1=NCc2nnc(-c3cccnn3)n2-c2sc3c(c21)C[C@@H](C(F)F)C3
1090.8

Look up and state reported γ2/γ1 Selectivity Ratio for Cc1nnc2n1-c1sc3c(c1C(c1c(F)cccc1F)=NC2)C[C@@H](C#N)C3
50.7

Fill in reported γ2/γ1 Selectivity Ratio for this entry: C[C@@H]1N=C(c2c(F)cccc2F)c2c(sc3c2C[C@@H](C(F)F)C3)-n2c(CO)cnc21
127.6

For the compound Cc1nnc2n1-c1sc3c(c1C(c1c(F)cccc1Cl)=N[C@H]2C)C[C@@H](C(F)F)C3 , give its measured γ2/γ1 Selectivity Ratio value.
101.3

Hello, please tell me recorded γ2/γ1 Selectivity Ratio for this one: Cc1nnc2n1-c1sc3c(c1C(c1c(F)cccc1Cl)=NC2)C[C@@H](C(F)F)C3
74.8

Give a short answer stating reported γ2/γ1 Selectivity Ratio for C[C@@H]1N=C(c2c(F)cccc2Cl)c2c(sc3c2C[C@@H](C(F)F)C3)-n2c(-c3cccnn3)nnc21 .
176.0

Output measured γ2/γ1 Selectivity Ratio for this item: CCOC(=O)C1Cc2sc3c(c2C1)C(c1ccccc1Cl)=NCc1nnc(C)n1-3 (stereo not drawn) [RE-B, reference compound]
1.66

Read off the recorded γ2/γ1 Selectivity Ratio for Cc1nnc2n1-c1sc3c(c1C(c1ccccc1Cl)=NC2)CCC3 [RE-A, reference compound]
0.38

Supply reported γ2/γ1 Selectivity Ratio belonging to this compound: Cc1nnc2n1-c1sc3c(c1C(c1c(F)cccc1F)=N[C@H]2C)C[C@@H](C(F)F)C3
66.5

# return recorded γ2/γ1 Selectivity Ratio for input Cc1nnc2n1-c1sc3c(c1C(c1c(F)cccc1Cl)=NC2)C[C@@H](C#N)C3
49.0

Give the value of γ2/γ1 Selectivity Ratio reported for the following: Cc1nnc2n1-c1sc3c(c1C(c1c(F)cccc1F)=N[C@H]2C)C[C@@H](C(F)(F)F)C3
43.5

Dear colleague, please send me the reported γ2/γ1 Selectivity Ratio for Cc1cnc2n1-c1sc3c(c1C(c1c(F)cccc1F)=N[C@H]2C)C[C@@H](C(F)F)C3 when you can.
53.4

Provide measured γ2/γ1 Selectivity Ratio value, entry: C[C@@H]1N=C(c2c(F)cccc2F)c2c(sc3c2C[C@@H](C(F)F)C3)-n2c(C3CC3)nnc21
99.2

Give the reported value of γ2/γ1 Selectivity Ratio for this record: C[C@@H]1N=C(c2c(F)cccc2F)c2c(sc3c2C[C@@H](C(F)F)C3)-n2nc(C(=O)N3CCS(=O)(=O)CC3)nc21
162.3

Return reported γ2/γ1 Selectivity Ratio. Input compound: Fc1cccc(F)c1C1=NCc2nnc(C3CC3)n2-c2sc3c(c21)C[C@@H](C(F)F)C3
47.3

State, in one line, measured γ2/γ1 Selectivity Ratio of C[C@@H]1N=C(c2c(F)cccc2F)c2c(sc3c2C[C@@H](C(F)F)C3)-n2nc(C(=O)NCCO)nc21
107.2
